Biological target: human Orexin-2 receptor (Homo sapiens, UniProt O43614)
Construct: expressed in transfected cells; host or cells: HEK293 cells (transient transfection, Genejuice); membranes
Sequence (O43614 1-444): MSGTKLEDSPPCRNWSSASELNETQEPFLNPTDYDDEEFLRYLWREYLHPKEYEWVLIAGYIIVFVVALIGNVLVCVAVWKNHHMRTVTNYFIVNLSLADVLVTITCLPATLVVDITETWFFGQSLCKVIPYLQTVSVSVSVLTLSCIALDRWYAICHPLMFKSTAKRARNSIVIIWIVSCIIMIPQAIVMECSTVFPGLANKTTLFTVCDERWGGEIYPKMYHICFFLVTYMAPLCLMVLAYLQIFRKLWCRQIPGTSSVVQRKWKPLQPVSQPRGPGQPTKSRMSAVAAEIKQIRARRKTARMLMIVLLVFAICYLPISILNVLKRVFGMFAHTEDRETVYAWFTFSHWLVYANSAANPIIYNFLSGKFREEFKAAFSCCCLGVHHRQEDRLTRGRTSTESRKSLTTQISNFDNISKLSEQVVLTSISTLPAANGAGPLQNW
Experiment: 3H-EMPA radioligand binding assay
Conditions: 3H-EMPA displacement, membranes of HEK293 cells transfected with human Orexin-2 receptor; KI by Cheng-Prussoff; read-out: OX2 pKi ave (converted)
Entries and their Ki
Output spec: scalar in nM, unitless text.

[
  {
    "structure-string": "CCc1ccccc1N1C(=O)N(Cc2c(F)cccc2Cl)c2ccccc2S1(=O)=O",
    "test-system": "human Orexin-2 receptor (Homo sapiens, UniProt O43614)",
    "Ki [nM]": 28.2
  }
]

Ask: Could you please provide reported Ki for COc1ccc(N2C(=O)N(Cc3ccccc3Cl)c3ccccc3S2(=O)=O)cc1OC ? Thanks!
Result: 18.6

Ask: Could you please provide reported Ki for Cc1ccc(N2C(=O)N(Cc3cccc(F)c3)c3ccccc3S2(=O)=O)cc1Cl ? Thanks!
Result: 34.7
